test: Oral bioavailability in dog at 3 mg/kg; assay type: ADME, organism-based, Canis lupus familiaris; settings: in vivo

chemicalString: CC(C)N1CCC[C@H](Cn2c(CN(C)[C@H]3CCCc4cccnc43)nc3ccccc32)C1
bioavailability [%]: 22

---

test: Cytotoxicity against human HOS cells; type: cell-based
Measured CC50, listed per entry.
measurementName: CC50 (µM)

molecule: CN(Cc1nc2ccccc2n1C[C@H]1CCCNC1)[C@H]1CCCc2cccnc21
measurementUnits: µM
measValue: 3.5

molecule: CN1CCC(n2c(CN(C)C3CCCc4cccnc43)nc3ccccc32)CC1 (stereo unspecified)
measurementUnits: µM
measValue: 16

molecule: CN1CCCC(Cn2c(CN(C)C3CCCc4cccnc43)nc3ccccc32)C1 (stereo unspecified)
measurementUnits: µM
measValue: 3

molecule: CN(Cc1nc2ccccc2n1CC1CNC1)C1CCCc2cccnc21 (stereo unspecified)
measurementUnits: µM
measValue: 15

molecule: CN1CCCCC1CCn1c(CN(C)C2CCCc3cccnc32)nc2ccccc21 (stereo unspecified)
measurementUnits: µM
measValue: 4.9

molecule: CC(C)N1CCC[C@H](Cn2c(CN(C)[C@H]3CCCc4cccnc43)nc3ccccc32)C1
measurementUnits: µM
measValue: 2.1

molecule: CN(Cc1nc2ccccc2n1C[C@H]1CCCN(CCO)C1)[C@H]1CCCc2cccnc21
measurementUnits: µM
measValue: 2.5

molecule: CN1CC(Cn2c(CN(C)C3CCCc4cccnc43)nc3ccccc32)C1 (stereo unspecified)
measurementUnits: µM
measValue: 14

molecule: CN(Cc1nc2ccccc2n1C[C@H]1CCCN(Cc2cccnc2)C1)[C@H]1CCCc2cccnc21
measurementUnits: µM
measValue: 2.5

molecule: CN(Cc1nc2ccccc2n1CC1CCNC1)C1CCCc2cccnc21 (stereo unspecified)
measurementUnits: µM
measValue: 7.7

molecule: CN1CCC[C@@H](Cn2c(CN(C)[C@H]3CCCc4cccnc43)nc3ccccc32)C1
measurementUnits: µM
measValue: 3.5

---

assay: Oral bioavailability in rat at 3 mg/kg; type: ADME, organism-based; details: in vivo

chemicalString: CC(C)N1CCC[C@H](Cn2c(CN(C)[C@H]3CCCc4cccnc43)nc3ccccc32)C1
measurementUnits: %
bioavailability: 11

---

assay: Cytotoxicity against human HOS cells; type: cell-based
This listing pairs molecules with measured CC50.

molecule: CN1CCC(Cn2c(CN(C)C3CCCc4cccnc43)nc3ccccc32)C1 (stereo not given)
measurementUnits: µM
boundSign: =
CC50: 15

molecule: CN(Cc1nc2ccccc2n1CCCN)C1CCCc2cccnc21 (stereo not given)
measurementUnits: µM
boundSign: =
CC50: 9.6

molecule: CC(C)CN1CCC[C@H](Cn2c(CN(C)[C@H]3CCCc4cccnc43)nc3ccccc32)C1
measurementUnits: µM
boundSign: >
CC50: 2

molecule: CN(Cc1nc2ccccc2n1CCC1CCCCN1)C1CCCc2cccnc21 (stereo not given)
measurementUnits: µM
boundSign: =
CC50: 8.3

molecule: CC(C)CCN1CCC[C@H](Cn2c(CN(C)[C@H]3CCCc4cccnc43)nc3ccccc32)C1
measurementUnits: µM
boundSign: =
CC50: 2.3

molecule: CN1CCC[C@H](Cn2c(CN(C)[C@@H]3CCCc4cccnc43)nc3ccccc32)C1
measurementUnits: µM
boundSign: =
CC50: 3.6

molecule: CN1CCC[C@H](Cn2c(CN(C)[C@H]3CCCc4cccnc43)nc3ccccc32)C1
measurementUnits: µM
boundSign: =
CC50: 3.6

molecule: CN1CCC[C@@H](Cn2c(CN(C)[C@@H]3CCCc4cccnc43)nc3ccccc32)C1
measurementUnits: µM
boundSign: =
CC50: 2.8

molecule: CN(Cc1nc2ccccc2n1C1CCNCC1)C1CCCc2cccnc21 (stereo not given)
measurementUnits: µM
boundSign: =
CC50: 13

molecule: CN(Cc1nc2ccccc2n1CC1CCCNC1)C1CCCc2cccnc21 (stereo not given)
measurementUnits: µM
boundSign: =
CC50: 15

---

test: Half life in dog at 1 mg/kg, iv; format: ADME, organism-based, Canis lupus familiaris; set-up: dose 1 mg/kg, route intravenous; details: in vivo

chemicalString: CC(C)N1CCC[C@H](Cn2c(CN(C)[C@H]3CCCc4cccnc43)nc3ccccc32)C1
half-life / h: 11

---

test: Clearance in dog at 1 mg/kg, iv; type: ADME, organism-based, Canis lupus familiaris; set-up: dose 1 mg/kg, route intravenous; conditions: in vivo

chemicalString: CC(C)N1CCC[C@H](Cn2c(CN(C)[C@H]3CCCc4cccnc43)nc3ccccc32)C1
measurementUnits: mL/min/kg
clearance: 9.4

---

biological target: C-X-C chemokine receptor type 4 (Homo sapiens)
Sequence (P61073 whole entry): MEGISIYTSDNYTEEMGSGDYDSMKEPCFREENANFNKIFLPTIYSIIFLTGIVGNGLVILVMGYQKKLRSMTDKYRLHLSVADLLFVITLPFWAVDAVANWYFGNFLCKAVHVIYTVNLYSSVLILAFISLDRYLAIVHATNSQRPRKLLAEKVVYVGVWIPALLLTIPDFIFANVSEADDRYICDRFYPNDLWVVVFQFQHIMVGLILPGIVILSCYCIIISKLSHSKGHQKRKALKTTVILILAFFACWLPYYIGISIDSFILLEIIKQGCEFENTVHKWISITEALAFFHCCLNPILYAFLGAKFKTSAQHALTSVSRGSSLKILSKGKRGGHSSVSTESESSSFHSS
pIC50: −log10 of the molar value.
measurementName: pIC50

molecule: CN1CCC(n2c(CN(C)C3CCCc4cccnc43)nc3ccccc32)CC1 (stereo unspecified)
measurementName: pIC50
measValue: 7.12

---

experiment: Half life in rat at 1 mg/kg, iv; type: ADME, organism-based; parameters: dose 1 mg/kg, route intravenous; settings: in vivo
measurementName: half-life (h)

chemicalString: CC(C)N1CCC[C@H](Cn2c(CN(C)[C@H]3CCCc4cccnc43)nc3ccccc32)C1
measValue: 5.8
